# maps each entry to its ΔG
# MEASURED_TARGET: AccA (Agrobacterium fabrum)
# Sequence (Q52012 entry or part of it): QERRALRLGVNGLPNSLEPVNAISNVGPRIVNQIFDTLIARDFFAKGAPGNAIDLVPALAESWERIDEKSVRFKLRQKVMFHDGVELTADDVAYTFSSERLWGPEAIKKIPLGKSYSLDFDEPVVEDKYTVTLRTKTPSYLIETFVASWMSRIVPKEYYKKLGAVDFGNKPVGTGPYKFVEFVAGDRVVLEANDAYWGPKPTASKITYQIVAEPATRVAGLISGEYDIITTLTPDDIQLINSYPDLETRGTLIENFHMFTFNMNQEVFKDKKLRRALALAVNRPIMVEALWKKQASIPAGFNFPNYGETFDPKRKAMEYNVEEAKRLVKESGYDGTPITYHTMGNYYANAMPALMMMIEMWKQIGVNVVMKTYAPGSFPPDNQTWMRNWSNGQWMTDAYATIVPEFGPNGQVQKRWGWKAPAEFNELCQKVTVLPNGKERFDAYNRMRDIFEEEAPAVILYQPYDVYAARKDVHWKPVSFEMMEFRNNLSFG
# MEASUREMENT_NOTES: AccA isothermal titration microcalorimetry
# Type: binding, Agrobacterium tumefaciens C58
# ASSAY_CONDITIONS: ITC, 20°C
Note: unit kcal/mol is implicit; provide only the numeric part.

Check out these entries, answers already filled in.
compound="O=P(O)(OC1C(O)OCC(O)C1O)OC1C(CO)OC(CO)(OC2OC(CO)C(O)C(O)C2O)C1O (stereo not shown) [agrocinopine A]" property_measured=ΔG quantity_unit=kcal/mol recorded_value=-8.6
compound="O=C(OC1C(OP(=O)(O)OC2C(O)OCC(O)C2O)C(CO)OC1(CO)OC1OC(CO)C(O)C(O)C1O)c1ccccc1 (stereo not shown) [agrocinopine 3’-O-benzoate]" property_measured=ΔG quantity_unit=kcal/mol recorded_value=-6.9
compound="O=C[C@H](OP(=O)(O)O)[C@@H](O)[C@@H](O)CO [L-arabinose-2-phosphate]" property_measured=ΔG quantity_unit=kcal/mol recorded_value=-7.9

# ---- query compound ----
Inquiry: Entry under review: CC(C)OP(=O)(O)O[C@H]1C(O)OC[C@H](O)[C@@H]1O (stereo partly drawn) [L-arabinose-2-isopropylphosphate] . Reported ΔG?
Reply text: -7.6
